# Tested Target: L-2-hydroxy-4-methylpentanoic acid-dehydrogenase (Weissella confusa)
# Construct: the cells harvesting by centrifugation, solubilizing the product in a suspension buffered to pH 7 and obtaining the enzyme from the extract; made in house; host or cells: Lactobacillus confusus DSM 20196 (natural producer, not recombinant)
# Sequence (P14295 1-310): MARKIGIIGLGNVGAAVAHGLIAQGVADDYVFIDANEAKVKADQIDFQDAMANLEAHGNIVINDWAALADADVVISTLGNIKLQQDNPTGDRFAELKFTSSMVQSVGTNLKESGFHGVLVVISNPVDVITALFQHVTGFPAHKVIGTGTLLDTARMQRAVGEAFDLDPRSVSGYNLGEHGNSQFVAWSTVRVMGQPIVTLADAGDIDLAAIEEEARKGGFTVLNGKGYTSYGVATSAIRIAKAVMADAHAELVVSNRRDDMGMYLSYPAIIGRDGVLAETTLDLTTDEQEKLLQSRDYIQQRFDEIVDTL
# Protocol Summary: Dehydrogenation of 2-hydroxycarboxylic acids to 2-ketocarboxylic acids (Example 1), NADH formation at 340 nm
# Type: biochemical, Lactobacillus confusus
# Experimental Setup: test concentration 100 mM substrate, same enzyme solution
Kindly return true (1) if reported relative activity is no lower than 5 U/ml; return false (0) if it is lower.

Compound	Tested Target	Category
CC(C)CC(O)C(=O)O (racemic) [DL-2-Hydroxy-4-methylpentanoic acid]	L-2-hydroxy-4-methylpentanoic acid-dehydrogenase (Weissella confusa)	false (0)

Asked: Is reported relative activity greater than or equal to 5 U/ml here: CCCC(O)C(=O)O (racemic) [DL-2-Hydroxypentanoic acid]
Given back: true (1)

Asked: Is reported relative activity greater than or equal to 5 U/ml here: CCCCC(O)C(=O)O (racemic) [DL-2-Hydroxyhexanoic acid]
Given back: false (0)
